# Test system: Leukemia cell
# testName: Inhibition of human leukemia cells
# Assay type: functional
Output 1.0 for records whose GI50 is lower than 7 µM, 0.0 for records at or above 7 µM.

Example entries and their recorded answers appear below.
N=C(N)N/N=C/c1c(-c2cccs2)nc2sccn12
1.0
Cc1nn2c(/C=N/NC(=N)N)c(-c3ccc(Cl)c([N+](=O)[O-])c3)nc2s1
1.0
N=C(N)N/N=C/c1c(-c2cccs2)nc2n1CCS2
0.0
Cc1cn2c(/C=N/NC(=N)N)c(-c3cc(Cl)sc3Cl)nc2s1
1.0

Now consider the entry below.
I'd appreciate it if you could check whether CCOC(=O)c1nc2sc(Cl)cn2c1/C=N\NC(=N)N has GI50 smaller than 7 µM.
0.0

----------
Reported GI50 values are given for each entry in this list.
# Tested on: Cancer cell lines
# testName: Inhibition of human breast cancer cells
# Assay type: functional
I only need the number, in µM, no unit after it.

COc1cc(OC)cc(-c2nc3sccn3c2/C=N/NC(=N)N)c1
10

I'm curious: which GI50 was measured for Cc1cn2c(/C=N/NC(=N)N)c(-c3ccsc3)nc2s1 tested on Cancer cell lines?
7.76

I'm curious: which GI50 was measured for N=C(N)N/N=C/c1c(-c2ccc(Cl)c([N+](=O)[O-])c2)nc2sc3ccccc3n12 tested on Cancer cell lines?
0.741

I'm curious: which GI50 was measured for Cc1cn2c(/C=N/NC(=N)N)c(-c3cc(Cl)sc3Cl)nc2s1 tested on Cancer cell lines?
1.23

I'm curious: which GI50 was measured for Cc1cn2c(/C=N/NC(=N)N)c(-c3cccs3)nc2s1 tested on Cancer cell lines?
5.75

I'm curious: which GI50 was measured for COc1cc([N+](=O)[O-])c(OC)cc1-c1nc2sc(Cl)cn2c1/C=N\NC(=N)N/N=C\c1c(-c2cc(OC)c([N+](=O)[O-])cc2OC)nc2sc(Cl)cn12 tested on Cancer cell lines?
3.31

I'm curious: which GI50 was measured for Cc1cn2c(/C=N/Nc3ccccn3)c(-c3ccc(Cl)c([N+](=O)[O-])c3)nc2s1 tested on Cancer cell lines?
13.8

I'm curious: which GI50 was measured for N=C(N)N/N=C/c1c(-c2cccs2)nc2sccn12 tested on Cancer cell lines?
14.8

I'm curious: which GI50 was measured for Cc1cn2c(/C=N/NC3=NCCN3)c(-c3ccc(Cl)c([N+](=O)[O-])c3)nc2s1 tested on Cancer cell lines?
1.82

I'm curious: which GI50 was measured for N=C(N)N/N=C/c1c(-c2cc(Cl)sc2Cl)nc2n1CCS2 tested on Cancer cell lines?
12.3

----------
# Test system: Cancer cell lines
# testName: Inhibition of human prostate cancer cells
# Type: functional
Output MET for records whose GI50 is lower than 8 µM, NOT MET for records at or above 8 µM.

I'd appreciate it if you could check whether N=C(N)N/N=C/c1c(-c2cc(Cl)sc2Cl)nc2sccn12 has GI50 smaller than 8 µM.
MET

I'd appreciate it if you could check whether Cc1nn2c(/C=N/NC(=N)N)c(-c3ccc(Cl)c([N+](=O)[O-])c3)nc2s1 has GI50 smaller than 8 µM.
MET

I'd appreciate it if you could check whether N=C(N)N/N=C/c1c(-c2cccs2)nc2n1CCS2 has GI50 smaller than 8 µM.
NOT MET

I'd appreciate it if you could check whether CC(/C=N/NC(=N)N)=N\NC(=N)N [MITOGUAZONE] has GI50 smaller than 8 µM.
NOT MET

I'd appreciate it if you could check whether N=C(N)N/N=C/c1c(-c2cccs2)nc2sccn12 has GI50 smaller than 8 µM.
NOT MET

I'd appreciate it if you could check whether Cc1cn2c(/C=N/NC(=N)N)c(-c3cccs3)nc2s1 has GI50 smaller than 8 µM.
MET

I'd appreciate it if you could check whether N=C(N)N/N=C/c1c(-c2ccc(Cl)c([N+](=O)[O-])c2)nc2ccccn12 has GI50 smaller than 8 µM.
MET

I'd appreciate it if you could check whether Cc1cn2c(/C=N/NC3=NCCN3)c(-c3ccc(Cl)c([N+](=O)[O-])c3)nc2s1 has GI50 smaller than 8 µM.
MET

I'd appreciate it if you could check whether Cc1cn2c(/C=N/NC(=N)NN)c(-c3ccc(Cl)c([N+](=O)[O-])c3)nc2s1 has GI50 smaller than 8 µM.
MET

I'd appreciate it if you could check whether COc1cc(OC)cc(-c2nc3sccn3c2/C=N/NC(=N)N)c1 has GI50 smaller than 8 µM.
NOT MET

I'd appreciate it if you could check whether N=C(N)N/N=C/c1c(-c2ccsc2)nc2sccn12 has GI50 smaller than 8 µM.
NOT MET

I'd appreciate it if you could check whether Cc1cc(-c2nc3sccn3c2/C=N/NC(=N)N)c(C)s1 has GI50 smaller than 8 µM.
NOT MET

I'd appreciate it if you could check whether Cc1cc(-c2nc3sc(C)cn3c2/C=N/NC(=N)N)c(C)s1 has GI50 smaller than 8 µM.
MET

----------
# Tested on: Melanoma cell
# testName: Inhibition of human melanoma cells
# Assay type: functional
Reported GI50 values are given for each entry in this list.
Answer by giving the amount and then stating its unit.

Observe how each entry below is paired with its result.
Cc1cn2c(/C=N/NC3=NCCN3)c(-c3ccc(Cl)c([N+](=O)[O-])c3)nc2s1
977 nM
Cc1cc(-c2nc3n(c2/C=N/NC(=N)N)CCS3)c(C)s1
15500 nM
Cc1cn2c(/C=N/NC(=N)NN)c(-c3ccc(Cl)c([N+](=O)[O-])c3)nc2s1
1820 nM
Cc1nn2c(/C=N/NC(=N)N)c(-c3ccc(Cl)c([N+](=O)[O-])c3)nc2s1
1450 nM
COc1cc([N+](=O)[O-])c(OC)cc1-c1nc2sc(Cl)cn2c1/C=N\NC1=NCCN1
1260 nM

I'm curious: which GI50 was measured for Cc1cn2c(/C=N/NC(=N)N)c(-c3cc(Cl)sc3Cl)nc2s1 tested on Melanoma cell?
1050 nM

I'm curious: which GI50 was measured for CC(/C=N/NC(=N)N)=N\NC(=N)N tested on Melanoma cell?
39800 nM

----------
# Test system: Cancer cell lines
# testName: Inhibition of human prostate cancer cells
# Type: functional
readoutLabel: GI50
Answer by giving the amount and then stating its unit.

Cc1cn2c(/C=N/NC(=N)N)c(-c3ccsc3)nc2s1
7.59 µM
N=C(N)N/N=C/c1c(-c2ccc(Cl)c([N+](=O)[O-])c2)nc2sc3ccccc3n12
2.29 µM
COc1cc([N+](=O)[O-])c(OC)cc1-c1nc2sc(Cl)cn2c1/C=N\Nc1ccccn1
16.2 µM
N=C(N)N/N=C/c1c(-c2ccsc2)nc2n1CCS2
17.4 µM
Cc1cn2c(/C=N/Nc3ccccn3)c(-c3ccc(Cl)c([N+](=O)[O-])c3)nc2s1
11.7 µM

I'd like to know its GI50. The molecule in question is Cc1cn2c(/C=N/NC(=N)N)c(-c3cc(Cl)sc3Cl)nc2s1
0.794 µM
